Target: PARP (Mus musculus, UniProt P11103)
Construct: endogenous in cells; host or cells: L1210 murine leukaemia cells, permeabilised by hypotonic buffer and cold shock
Sequence (P11103 whole entry): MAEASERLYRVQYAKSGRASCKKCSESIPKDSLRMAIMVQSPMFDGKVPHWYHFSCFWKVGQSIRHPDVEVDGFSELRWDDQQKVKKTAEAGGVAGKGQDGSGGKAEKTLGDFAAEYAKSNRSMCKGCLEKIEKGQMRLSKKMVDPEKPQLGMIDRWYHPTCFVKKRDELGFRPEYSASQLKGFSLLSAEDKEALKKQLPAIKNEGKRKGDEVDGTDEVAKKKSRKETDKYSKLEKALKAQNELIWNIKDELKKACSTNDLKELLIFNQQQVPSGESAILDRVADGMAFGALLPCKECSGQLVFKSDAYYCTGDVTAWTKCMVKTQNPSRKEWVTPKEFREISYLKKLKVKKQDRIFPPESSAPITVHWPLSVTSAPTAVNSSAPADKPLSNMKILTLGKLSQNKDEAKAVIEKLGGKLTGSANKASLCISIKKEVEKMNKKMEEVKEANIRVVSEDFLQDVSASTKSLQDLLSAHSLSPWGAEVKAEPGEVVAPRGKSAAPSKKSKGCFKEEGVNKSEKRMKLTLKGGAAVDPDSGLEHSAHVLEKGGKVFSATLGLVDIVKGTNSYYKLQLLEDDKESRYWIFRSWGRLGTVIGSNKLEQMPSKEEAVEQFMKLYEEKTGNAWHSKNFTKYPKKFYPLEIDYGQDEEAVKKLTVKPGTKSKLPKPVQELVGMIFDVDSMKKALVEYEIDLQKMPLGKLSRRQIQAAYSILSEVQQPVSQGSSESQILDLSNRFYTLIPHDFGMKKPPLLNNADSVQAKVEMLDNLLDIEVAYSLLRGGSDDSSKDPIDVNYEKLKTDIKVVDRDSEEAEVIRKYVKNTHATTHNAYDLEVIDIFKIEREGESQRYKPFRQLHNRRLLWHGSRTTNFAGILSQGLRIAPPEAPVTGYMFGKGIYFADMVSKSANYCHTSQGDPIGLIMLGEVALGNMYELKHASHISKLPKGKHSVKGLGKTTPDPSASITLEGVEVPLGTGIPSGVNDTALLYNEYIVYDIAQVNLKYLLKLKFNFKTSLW
Test: PARP inhibition assay ([32P]-NAD incorporation into TCA-precipitated poly(ADP-ribose) in permeabilised L1210 cells, oligonucleotide activated)
Type: biochemical, L1210 murine leukaemia cells
Details: 10 μM; read-out: % Inhibition (PARP)
Endpoint: inhibition at 10 µM (%)
Report only the number, with the unit % understood.

# annotated cases, reported inhibition at 10 µM shown
- O=c1[nH]c(-c2ccc([N+](=O)[O-])cc2)nc2c(O)cccc12: 92
- CCCCCOc1cccc(C(N)=O)c1 [NU1039, 3-pentyloxybenzamide]: 18
- NC(=O)c1cccc(OCc2ccc([N+](=O)[O-])cc2)c1 [NU1007, 3-(4-nitrobenzyloxy)benzamide]: 26

Dear colleague, I am looking for the recorded inhibition at 10 µM of the following molecule: C=CCOc1cccc(C(N)=O)c1 [NU1031, 3-Allyloxybenzamide]
21

Note, next up: NC(=O)c1cccc(OCc2ccc(C(F)(F)F)cc2)c1 [NU1036, 3-(4-Trifluoromethylbenzyloxy)benzamide]
3

###

Listed below: inhibition at 30 µM values for each entry.
Molecular target: PARP (Mus musculus, UniProt P11103)
Construct: endogenous in cells; host or cells: L1210 murine leukaemia cells, permeabilised by hypotonic buffer and cold shock
Assay: PARP inhibition assay ([32P]-NAD incorporation into TCA-precipitated poly(ADP-ribose) in permeabilised L1210 cells, oligonucleotide activated)
Format: biochemical, L1210 murine leukaemia cells
Conditions: 30 μM; read-out: % Inhibition (PARP)
Number first, unit second.

• NC(=O)c1cccc(OCc2ccc3c(c2)OCO3)c1 [NU1020, 3-(Piperonyloxy)benzamide] = 70%
• CCCCCOc1cccc(C(N)=O)c1 [NU1039, 3-pentyloxybenzamide] = 45%
• CCCCCCOc1cccc(C(N)=O)c1 [NU1043, 3-hexyloxybenzamide] = 39%
• NC(=O)c1cccc(OCc2ccc(Br)cc2)c1 [NU1014, 3-(4-Bromobenzyloxy)benzamide] = 36%
• NC(=O)c1cccc(OCc2ccc(N)cc2)c1 [NU1016, 3-(4-aminobenzyloxy)benzamide] = 66%
• CC(=O)Nc1ccc(COc2cccc(C(N)=O)c2)cc1 [NU1030, 3-(N-acetyl-4-aminobenzyloxy)benzamide] = 70%
• NC(=O)c1cccc(OCCCCCBr)c1 [NU1019, 3-(5-Bromopentyloxy)benzamide] = 54%

Please look at the following molecule next.
Report inhibition at 30 µM for C=CCOc1cccc(C(N)=O)c1 [NU1031, 3-Allyloxybenzamide] please.
58%

###

Target: PARP (Mus musculus, UniProt P11103)
Construct: endogenous in cells; host or cells: L1210 murine leukaemia cells, permeabilised by hypotonic buffer and cold shock
Assay: PARP inhibition assay ([32P]-NAD incorporation into TCA-precipitated poly(ADP-ribose) in permeabilised L1210 cells, oligonucleotide activated)
Type: biochemical, L1210 murine leukaemia cells
Details: 10 μM; read-out: % Inhibition (PARP)
Endpoint: inhibition at 10 µM (%)
Reply numerically in %, unit not repeated.

• NC(=O)c1cccc(OCc2ccc(N)cc2)c1 [NU1016, 3-(4-aminobenzyloxy)benzamide] = 40
• CCCCCCOc1cccc(C(N)=O)c1 [NU1043, 3-hexyloxybenzamide] = 15
• CCCCOc1cccc(C(N)=O)c1 [NU1038, 3-butoxybenzamide] = 23
• CCCCCCCOc1cccc(C(N)=O)c1 [NU1044, 3-heptyloxybenzamide] = 26

Requested read-out inhibition at 10 µM, target or system PARP (Mus musculus, UniProt P11103), entry NC(=O)c1cccc(N)c1 [3-aminobenzamide]
36

And then NC(=O)c1cccc(OCc2ccc3c(c2)OCO3)c1 [NU1020, 3-(Piperonyloxy)benzamide] , what is it?
51

Same for NC(=O)c1cccc(OC/C=C/c2ccccc2)c1 [NU1050, 3-(Cinnamyloxy)benzamide]
23

# iterate: NC(=O)c1cccc2oc(-c3ccccc3)nc12 [NU1051, 2-Phenylbenzoxazole-4-carboxamide]
82

Consider next the compound CC(C)(C)c1nc2c(C(N)=O)cccc2o1 [NU1040, 2-t-butylbenzoxazole-4-carboxamide] in the same way.
87
